Test system: TK6 cells
METHOD: Cytostasis analysis (Relative Population Doubling, Guava ViaCount)
Format: cell-based, human
MEASUREMENT CONTEXT: 25 µM, 26 h treatment, vs untreated control C (-) = 100%, mean ± SEM
From the text: In addition, to make the genotoxicity test reliable, it is necessary to check the cellular proliferation in order to verify that a sufficient number of cells has undergone mitosis and so transmitted the genetic damage suffered to the daughter cells. For this purpose, the OECD recommends the measurement of the Relative Population Doubling (RPD) to estimate the cytostasis and, analogously to the cytotoxicity, establishes a threshold at most equal to 55 ± 5% [45]. […]
Kindly supply the reported Relative Population Doubling (RPD) values for the records listed here.

INPUT: Reported Relative Population Doubling (RPD), molecule "COc1ccc(OC)c(CCN)c1" : ____
OUTPUT: 85.0% ± 2.4

INPUT: Continue with CNC(C)Cc1ccc2c(c1)OCO2 (centres unmarked) [MDMA, 3,4-methylenedioxy-methamphetamine, reference compound]
OUTPUT: 98.7% ± 0.9

INPUT: Continue with "COc1cc(CCN)c(OC)cc1I"
OUTPUT: 72.5% ± 2.0

INPUT: Continue with "COc1cc(CCN)c(OC)cc1Br"
OUTPUT: 69.7% ± 1.6

INPUT: Continue with COc1cc(CCNCc2ccccc2OC)c(OC)cc1Br [25B-NBOMe]
OUTPUT: 50.0% ± 0.8

Entry source: paper PMC7766159
